- System: 699152-130-R-J1-PDC complex spheroid growth
- assay.info: Anticancer human tumor 699152-130-R-J1-PDC patient-derived pancreatic carcinoma cell line growth inhibition [AhR]
- test.conditions: second compound 0.1 µM; first compound 0.03 µM; stronger effect = lower value

compound	viability, T/C [%]
CCN(c1cc(-c2ccc(CN3CCOCC3)cc2)cc(C(=O)NCc2c(C)cc(C)[nH]c2=O)c1C)C1CCOCC1 + Cc1ccccc1N=Nc1ccc(NC(=O)c2ccnn2C)c(C)c1	113
O=C(C=Cn1cnc(-c2cc(C(F)(F)F)cc(C(F)(F)F)c2)n1)NNc1cnccn1 + CC(CO)NC(=O)c1cc(-c2ccc(Cl)cc2)nn(-c2cnn(C)c2)c1=O	98.4
CC(C)CC(NC(=O)C(Cc1ccccc1)NC(=O)c1cnccn1)B(O)O (stereo not drawn) + Cc1ccccc1N=Nc1ccc(NC(=O)c2ccnn2C)c(C)c1	1.03

###

Parameter pIC50: see the listing below.
- Test system: 699152-130-R-J1-PDC complex spheroid growth
- assay.info: Anticancer human tumor 699152-130-R-J1-PDC cell line growth inhibition [AhR];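 note: compound exposure lasted 7 days after spheroids had grown for 3 days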
- test.conditions: curve of first compound; second compound 0.1 µM
pIC50: −log10 of the molar value.

molecule	pIC50
COc1cc(Nc2ncc3c(n2)-c2ccc(Cl)cc2C(c2c(F)cccc2OC)=NC3)ccc1C(=O)O + CC(CO)NC(=O)c1cc(-c2ccc(Cl)cc2)nn(-c2cnn(C)c2)c1=O	< 5.00
CC1COCCN1c1cc(C2(S(C)(=N)=O)CC2)nc(-c2ccnc3[nH]ccc23)n1 (configuration not stated) + CC(CO)NC(=O)c1cc(-c2ccc(Cl)cc2)nn(-c2cnn(C)c2)c1=O	< 5.00
Nc1ncn(C2CC(O)C(CO)S2)c(=O)n1 (configuration not stated) + CC(CO)NC(=O)c1cc(-c2ccc(Cl)cc2)nn(-c2cnn(C)c2)c1=O	< 6.52
CCN(c1cc(-c2ccc(CN3CCOCC3)cc2)cc(C(=O)NCc2c(C)cc(C)[nH]c2=O)c1C)C1CCOCC1 + CC(CO)NC(=O)c1cc(-c2ccc(Cl)cc2)nn(-c2cnn(C)c2)c1=O	< 5.52
Nc1ccn(C2OC(CO)C(O)C2(F)F)c(=O)n1 (configuration not stated) + Cc1cncc(-c2nc(NCCc3c[nH]c4ccccc34)c3ncn(C(C)C)c3n2)c1	5.91
Nc1ncn(C2CC(O)C(CO)O2)c(=O)n1 (configuration not stated) + CC(CO)NC(=O)c1cc(-c2ccc(Cl)cc2)nn(-c2cnn(C)c2)c1=O	< 6.00
Nc1ccccc1NC(=O)c1ccc(CNC(=O)OCc2cccnc2)cc1 + Cc1cncc(-c2nc(NCCc3c[nH]c4ccccc34)c3ncn(C(C)C)c3n2)c1	5.14
CCc1c2c(nc3ccc(O)cc13)-c1cc3c(c(=O)n1C2)COC(=O)[C@]3(O)CC + CC(CO)NC(=O)c1cc(-c2ccc(Cl)cc2)nn(-c2cnn(C)c2)c1=O	7.74
CC(C)CC(NC(=O)C(Cc1ccccc1)NC(=O)c1cnccn1)B(O)O (configuration not stated) + CC(CO)NC(=O)c1cc(-c2ccc(Cl)cc2)nn(-c2cnn(C)c2)c1=O	8.23
O=C(C=Cc1cccc(S(=O)(=O)Nc2ccccc2)c1)NO + Cc1ccccc1N=Nc1ccc(NC(=O)c2ccnn2C)c(C)c1	< 5.00
COc1cc(C2c3cc4c(cc3C(OC3OC5COC(C)OC5C(O)C3O)C3COC(=O)C23)OCO4)cc(OC)c1O (configuration not stated) + Cc1cncc(-c2nc(NCCc3c[nH]c4ccccc34)c3ncn(C(C)C)c3n2)c1	< 5.00
O=C(C=Cc1cccc(S(=O)(=O)Nc2ccccc2)c1)NO + CC(CO)NC(=O)c1cc(-c2ccc(Cl)cc2)nn(-c2cnn(C)c2)c1=O	< 5.00

###

Parameter viability, T/C: see the listing below.
- System: 699152-130-R-J1-PDC complex spheroid growth
- assay.info: Anticancer human tumor 699152-130-R-J1-PDC cell line growth inhibition [AhR];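 note: compound exposure lasted 7 days after spheroids had grown for 3 days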
- test.conditions: second compound 0.1 µM; first compound 0.3 µM; stronger effect = lower value

compound	viability, T/C, %
CCc1c2c(nc3ccc(O)cc13)-c1cc3c(c(=O)n1C2)COC(=O)[C@]3(O)CC + Cc1cncc(-c2nc(NCCc3c[nH]c4ccccc34)c3ncn(C(C)C)c3n2)c1	29
CCN(c1cc(-c2ccc(CN3CCOCC3)cc2)cc(C(=O)NCc2c(C)cc(C)[nH]c2=O)c1C)C1CCOCC1 + Cc1cncc(-c2nc(NCCc3c[nH]c4ccccc34)c3ncn(C(C)C)c3n2)c1	120
O=C(C=Cn1cnc(-c2cc(C(F)(F)F)cc(C(F)(F)F)c2)n1)NNc1cnccn1 + CC(CO)NC(=O)c1cc(-c2ccc(Cl)cc2)nn(-c2cnn(C)c2)c1=O	74.3
CC(C)CC(NC(=O)C(Cc1ccccc1)NC(=O)c1cnccn1)B(O)O (stereo unspecified) + Cc1cncc(-c2nc(NCCc3c[nH]c4ccccc34)c3ncn(C(C)C)c3n2)c1	0.56
CCc1c2c(nc3ccc(O)cc13)-c1cc3c(c(=O)n1C2)COC(=O)[C@]3(O)CC + CC(CO)NC(=O)c1cc(-c2ccc(Cl)cc2)nn(-c2cnn(C)c2)c1=O	35.7
CC(C)CC(NC(=O)C(Cc1ccccc1)NC(=O)c1cnccn1)B(O)O (stereo unspecified) + Cc1ccccc1N=Nc1ccc(NC(=O)c2ccnn2C)c(C)c1	0.58

###

- Tested on: 699152-130-R-J1-PDC complex spheroid growth
- assay.info: Anticancer human tumor 699152-130-R-J1-PDC cell line growth inhibition [AhR];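 note: compound exposure lasted 7 days after spheroids had grown for 3 days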
- test.conditions: curve of first compound; second compound 10 µM
pIC50: −log10 of the molar value.
Parameter pIC50: see the listing below.

molecule	target.desc	pIC50
CCN(c1cc(-c2ccc(CN3CCOCC3)cc2)cc(C(=O)NCc2c(C)cc(C)[nH]c2=O)c1C)C1CCOCC1 + Cc1cncc(-c2nc(NCCc3c[nH]c4ccccc34)c3ncn(C(C)C)c3n2)c1	699152-130-R-J1-PDC complex spheroid growth	> 8.02
COc1ccc([C@@H](O)c2cc(-c3ncnc4cc(N5CCOCC5)ccc34)c(F)cc2Cl)nn1 + Cc1ccccc1N=Nc1ccc(NC(=O)c2ccnn2C)c(C)c1	699152-130-R-J1-PDC complex spheroid growth	5.32
O=C(C=Cn1cnc(-c2cc(C(F)(F)F)cc(C(F)(F)F)c2)n1)NNc1cnccn1 + CC(CO)NC(=O)c1cc(-c2ccc(Cl)cc2)nn(-c2cnn(C)c2)c1=O	699152-130-R-J1-PDC complex spheroid growth	< 5.52

###

Parameter viability, T/C: see the listing below.
- Test system: 699152-130-R-J1-PDC complex spheroid growth
- assay.info: Anticancer human tumor 699152-130-R-J1-PDC cell line growth inhibition [AhR];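 note: compound exposure lasted 7 days after spheroids had grown for 3 days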
- test.conditions: second compound 0.316 µM; first compound 0.316 µM; stronger effect = lower value

compound	viability, T/C, %
COc1cccc2c1C(=O)c1c(O)c3c(c(O)c1C2=O)CC(O)(C(=O)CO)CC3OC1CC(N)C(O)C(C)O1 (stereo unspecified) + Cc1ccccc1N=Nc1ccc(NC(=O)c2ccnn2C)c(C)c1	45.8
CC1COCCN1c1cc(-c2ccnn2C)c2ccnc(-c3ccn[nH]3)c2n1 (stereo unspecified) + Cc1ccccc1N=Nc1ccc(NC(=O)c2ccnn2C)c(C)c1	68.3
O=C(C=Cc1cccc(S(=O)(=O)Nc2ccccc2)c1)NO + Cc1cncc(-c2nc(NCCc3c[nH]c4ccccc34)c3ncn(C(C)C)c3n2)c1	101
NS(=O)(=O)OCC1CC(n2ccc3c(NC4CCc5ccccc54)ncnc32)CC1O (stereo unspecified) + Cc1cncc(-c2nc(NCCc3c[nH]c4ccccc34)c3ncn(C(C)C)c3n2)c1	147
Nc1ccn(C2OC(CO)C(O)C2(F)F)c(=O)n1 (stereo unspecified) + Cc1cncc(-c2nc(NCCc3c[nH]c4ccccc34)c3ncn(C(C)C)c3n2)c1	56.8
COc1ccc([C@@H](O)c2cc(-c3ncnc4cc(N5CCOCC5)ccc34)c(F)cc2Cl)nn1 + CC(CO)NC(=O)c1cc(-c2ccc(Cl)cc2)nn(-c2cnn(C)c2)c1=O	91.9

###

- System: 699152-130-R-J1-PDC complex spheroid growth
- assay.info: Anticancer human tumor 699152-130-R-J1-PDC cell line growth inhibition [AhR];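 note: compound exposure lasted 7 days after spheroids had grown for 3 days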
- test.conditions: second compound 3.16 µM; first compound 0.316 µM; stronger effect = lower value
Rule: viability, T/C below 70% gives t. Equal to or above 70% gives f.

molecule	label
COc1cc(Nc2ncc3c(n2)-c2ccc(Cl)cc2C(c2c(F)cccc2OC)=NC3)ccc1C(=O)O + Cc1cncc(-c2nc(NCCc3c[nH]c4ccccc34)c3ncn(C(C)C)c3n2)c1	f
Nc1ccn(C2OC(CO)C(O)C2(F)F)c(=O)n1 (centres undefined) + CC(CO)NC(=O)c1cc(-c2ccc(Cl)cc2)nn(-c2cnn(C)c2)c1=O	t
NS(=O)(=O)OCC1CC(n2ccc3c(NC4CCc5ccccc54)ncnc32)CC1O (centres undefined) + Cc1cncc(-c2nc(NCCc3c[nH]c4ccccc34)c3ncn(C(C)C)c3n2)c1	f
Nc1ccn(C2OC(CO)C(O)C2(F)F)c(=O)n1 (centres undefined) + Cc1ccccc1N=Nc1ccc(NC(=O)c2ccnn2C)c(C)c1	t
COc1ccc([C@@H](O)c2cc(-c3ncnc4cc(N5CCOCC5)ccc34)c(F)cc2Cl)nn1 + CC(CO)NC(=O)c1cc(-c2ccc(Cl)cc2)nn(-c2cnn(C)c2)c1=O	f
CC(C)c1c(-c2ccccc2)nc2c(C#N)c[nH]n2c1=O + CC(CO)NC(=O)c1cc(-c2ccc(Cl)cc2)nn(-c2cnn(C)c2)c1=O	f
Nc1ccccc1NC(=O)c1ccc(CNC(=O)OCc2cccnc2)cc1 + Cc1ccccc1N=Nc1ccc(NC(=O)c2ccnn2C)c(C)c1	f
Nc1ncn(C2CC(O)C(CO)O2)c(=O)n1 (centres undefined) + CC(CO)NC(=O)c1cc(-c2ccc(Cl)cc2)nn(-c2cnn(C)c2)c1=O	f
COc1ccc([C@@H](O)c2cc(-c3ncnc4cc(N5CCOCC5)ccc34)c(F)cc2Cl)nn1 + Cc1ccccc1N=Nc1ccc(NC(=O)c2ccnn2C)c(C)c1	f
COc1cc(C2c3cc4c(cc3C(OC3OC5COC(C)OC5C(O)C3O)C3COC(=O)C23)OCO4)cc(OC)c1O (centres undefined) + Cc1ccccc1N=Nc1ccc(NC(=O)c2ccnn2C)c(C)c1	t
COc1cccc2c1C(=O)c1c(O)c3c(c(O)c1C2=O)CC(O)(C(=O)CO)CC3OC1CC(N)C(O)C(C)O1 (centres undefined) + CC(CO)NC(=O)c1cc(-c2ccc(Cl)cc2)nn(-c2cnn(C)c2)c1=O	t
Nc1ccccc1NC(=O)c1ccc(CNC(=O)OCc2cccnc2)cc1 + CC(CO)NC(=O)c1cc(-c2ccc(Cl)cc2)nn(-c2cnn(C)c2)c1=O	f
O=C(c1cc(Cc2n[nH]c(=O)c3ccccc23)ccc1F)N1CCN(C(=O)C2CC2)CC1 + CC(CO)NC(=O)c1cc(-c2ccc(Cl)cc2)nn(-c2cnn(C)c2)c1=O	f
CC1COCCN1c1cc(-c2ccnn2C)c2ccnc(-c3ccn[nH]3)c2n1 (centres undefined) + CC(CO)NC(=O)c1cc(-c2ccc(Cl)cc2)nn(-c2cnn(C)c2)c1=O	f
COc1cccc2c1C(=O)c1c(O)c3c(c(O)c1C2=O)CC(O)(C(=O)CO)CC3OC1CC(N)C(O)C(C)O1 (centres undefined) + Cc1cncc(-c2nc(NCCc3c[nH]c4ccccc34)c3ncn(C(C)C)c3n2)c1	t
COc1cccc2c1C(=O)c1c(O)c3c(c(O)c1C2=O)CC(O)(C(=O)CO)CC3OC1CC(N)C(O)C(C)O1 (centres undefined) + Cc1ccccc1N=Nc1ccc(NC(=O)c2ccnn2C)c(C)c1	t
CC1COCCN1c1cc(-c2ccnn2C)c2ccnc(-c3ccn[nH]3)c2n1 (centres undefined) + Cc1cncc(-c2nc(NCCc3c[nH]c4ccccc34)c3ncn(C(C)C)c3n2)c1	t
CC(C)c1c(-c2ccccc2)nc2c(C#N)c[nH]n2c1=O + Cc1cncc(-c2nc(NCCc3c[nH]c4ccccc34)c3ncn(C(C)C)c3n2)c1	t
CC1COCCN1c1cc(C2(S(C)(=N)=O)CC2)nc(-c2ccnc3[nH]ccc23)n1 (centres undefined) + Cc1ccccc1N=Nc1ccc(NC(=O)c2ccnn2C)c(C)c1	f
Nc1ccn(C2OC(CO)C(O)C2(F)F)c(=O)n1 (centres undefined) + Cc1cncc(-c2nc(NCCc3c[nH]c4ccccc34)c3ncn(C(C)C)c3n2)c1	t
O=C(c1cc(Cc2n[nH]c(=O)c3ccccc23)ccc1F)N1CCN(C(=O)C2CC2)CC1 + Cc1ccccc1N=Nc1ccc(NC(=O)c2ccnn2C)c(C)c1	f
Nc1ncn(C2CC(O)C(CO)O2)c(=O)n1 (centres undefined) + Cc1cncc(-c2nc(NCCc3c[nH]c4ccccc34)c3ncn(C(C)C)c3n2)c1	f
CC1COCCN1c1cc(C2(S(C)(=N)=O)CC2)nc(-c2ccnc3[nH]ccc23)n1 (centres undefined) + Cc1cncc(-c2nc(NCCc3c[nH]c4ccccc34)c3ncn(C(C)C)c3n2)c1	f
